The following molecules are shown together with reported growth values.
# Tested on: A498 renal
# Test description: NCI-60 one-dose screen, 48 h (100 = growth as untreated, 0 = no growth, -100 = all killed)
# Condition notes: 10 µM
The panel holds about 83,000 compounds, 20% with a hit somewhere; the sample as a whole holds those more often.
Please reply with the bare figure in % and do not write the unit itself.

Reference set, count: 5
{"columns": ["Molecule", "growth (%)"],
 "data": [
  ["O=C(NC1CCCCC1)OCc1c(COC(=O)NC2CCCCC2)c(-c2ccc(Cl)c(Cl)c2)n2c1CCC2", -67.7],
  ["CC(C)(C)c1cc(O)c(C(C)(C)C)cc1O", 58.5],
  ["CCCOC(=O)C(O)c1ccccc1 (stereo not given)", 94.7],
  ["N/N=C(/Cc1ccccc1)NNC(N)=S", 87.5],
  ["CC(=O)Nc1c(C)cc(C)cc1C", 109]
]}

Now consider a different molecule.
Q: Can you share its growth? I mean this molecule: `O=C(Nc1ccccc1C(=O)NCC1CC1)c1cccs1`
Ans: 106
